Target: Gamma-secretase
Assay: Inhibition of gamma secretase activity in human H4 cells transfected with APP695 mutant assessed as beta amyloid(1-40) production by whole cell assay
Assay type: cell-based
measured-metric: IC50 (nM)

Below: 5 compounds and their reported IC50.
compound	test-target	quantitative-readout
CCC[C@H](NC(=O)Cc1cc(F)cc(F)c1)C(=O)Nc1nc(C)c(C(C)NCC(C)C)s1 (stereo in doubt; 34b)	Gamma-secretase	31.6
CCC[C@H](NC(=O)Cc1cc(F)cc(F)c1)C(=O)Nc1nc(C)c(C)s1	Gamma-secretase	94.1
CCC[C@H](NC(=O)[C@@H](O)C(C)C)C(=O)Nc1ncc([C@@H](C)CCCC(C)(C)OC)s1	Gamma-secretase	0.3
CCC[C@H](NC(=O)[C@@H](O)C(C)(C)C)C(=O)Nc1ncc(C(C)(C)O)s1	Gamma-secretase	37.3
CCC[C@H](NC(=O)Cc1cc(F)cc(F)c1)C(=O)Nc1nc(C)c(C(C)NCC(C)C)s1 (stereo in doubt; 34)	Gamma-secretase	4.8

I. CCC[C@H](NC(=O)Cc1cc(F)cc(F)c1)C(=O)Nc1ncc(C(C)C)s1
II. CCC[C@H](NC(=O)[C@@H](O)C(C)(C)C)C(=O)Nc1ncc([C@H](C)CCCC(C)(C)OC)s1
III. CCC[C@H](NC(=O)Cc1cc(F)cc(F)c1)C(=O)Nc1ncc(C(CC)CC)s1
IV. CCC[C@H](NC(=O)CCc1cc(F)cc(F)c1)C(=O)Nc1ncc(C(C)CCCC(C)(C)O)s1 (some centres undefined)
V. COC(C)(C)CCCC(C)c1cnc(NC(=O)[C@H](C)NC(=O)CCc2cc(F)cc(F)c2)s1 (some centres undefined)
Task item: Number of compounds to sort: 5. Sort criterion: IC50, ascending. Respond with an ordered listing of the labels, as requested.
Reply: IV, V, II, III, I

A. CCCC(CCC)c1cnc(NC(=O)[C@H](CCC)NC(=O)Cc2cc(F)cc(F)c2)s1
B. CCC[C@H](NC(=O)Cc1cc(F)cc(F)c1)C(=O)Nc1nc(C)c(C(C)NC)s1 (some centres undefined)
C. CCC[C@H](NC(=O)Cc1cc(F)cc(F)c1)C(=O)Nc1nc(C)c(C(C)=O)s1
D. CCC[C@H](NC(=O)Cc1cc(F)cc(F)c1)C(=O)Nc1ncc(CNCC)s1
Task item: Number of compounds to sort: 4. Sort criterion: IC50, ascending. Respond with an ordered listing of the labels, as requested.
Reply: A, C, B, D
(A: 0.8 nM, C: 27.7 nM, B: 50.5 nM, D: 104 nM)
